Recorded values, source ChEMBL document CHEMBL1159126.

System: Mycobacterium tuberculosis
Assay name: microbe, parasite or virus in culture
Assay setup: isolate Praha 1, 504 h

>  <Molecule>
NNC(=O)c1ccncc1 [ISONIAZID]

>  <Target or system>
Mycobacterium tuberculosis

>  <Result units>
µM

>  <MIC>
16

$$$$
>  <Molecule>
CCCCCCCNC(=O)Oc1ccc(Cl)cc1C(=O)Nc1ccc(Cl)c(Cl)c1

>  <Target or system>
Mycobacterium tuberculosis

>  <Result units>
µM

>  <MIC>
1

$$$$
>  <Molecule>
CCCCCNC(=O)Oc1ccc(Cl)cc1C(=O)Nc1ccc(Cl)cc1

>  <Target or system>
Mycobacterium tuberculosis

>  <Result units>
µM

>  <MIC>
2

$$$$
>  <Molecule>
CCCCCCNC(=O)Oc1ccc(Cl)cc1C(=O)Nc1cccc(Cl)c1

>  <Target or system>
Mycobacterium tuberculosis

>  <Result units>
µM

>  <MIC>
2

$$$$

* * *

Tested on: Mycobacterium tuberculosis
Assay name: microbe, parasite or virus in culture
Assay setup: isolate Praha 1, 504 h

>  <Record smiles>
CCCCCCCCNC(=O)Oc1ccc(Cl)cc1C(=O)Nc1ccc(Cl)c(Cl)c1

>  <Target or system>
Mycobacterium tuberculosis

>  <MIC [µM]>
2

$$$$
>  <Record smiles>
CCCCCCNC(=O)Oc1ccc(Cl)cc1C(=O)Nc1ccc(Cl)c(Cl)c1

>  <Target or system>
Mycobacterium tuberculosis

>  <MIC [µM]>
1

$$$$
>  <Record smiles>
CCNC(=O)Oc1ccc(Cl)cc1C(=O)Nc1ccc(Cl)c(Cl)c1

>  <Target or system>
Mycobacterium tuberculosis

>  <MIC [µM]>
1

$$$$
>  <Record smiles>
CCCCCNC(=O)Oc1ccc(Cl)cc1C(=O)Nc1ccc(Cl)c(Cl)c1

>  <Target or system>
Mycobacterium tuberculosis

>  <MIC [µM]>
1

$$$$
>  <Record smiles>
CCCCNC(=O)Oc1ccc(Cl)cc1C(=O)Nc1ccc(Cl)c(Cl)c1

>  <Target or system>
Mycobacterium tuberculosis

>  <MIC [µM]>
1

$$$$

* * *

Tested on: Mycobacterium tuberculosis
Assay name: microbe, parasite or virus in culture
Assay setup: isolate Praha 1, 336 h

>  <Record smiles>
CCCCCNC(=O)Oc1ccc(Cl)cc1C(=O)Nc1ccc(Cl)c(Cl)c1

>  <Result units>
µM

>  <MIC>
0.5

$$$$
>  <Record smiles>
CCCCCCNC(=O)Oc1ccc(Cl)cc1C(=O)Nc1ccc(Cl)c(Cl)c1

>  <Result units>
µM

>  <MIC>
0.5

$$$$
>  <Record smiles>
CCCCCCNC(=O)Oc1ccc(Cl)cc1C(=O)Nc1cccc(Cl)c1

>  <Result units>
µM

>  <MIC>
1

$$$$
>  <Record smiles>
NNC(=O)c1ccncc1

>  <Result units>
µM

>  <MIC>
16

$$$$
>  <Record smiles>
CCCCCCCCNC(=O)Oc1ccc(Cl)cc1C(=O)Nc1ccc(Cl)c(Cl)c1

>  <Result units>
µM

>  <MIC>
1

$$$$
>  <Record smiles>
CCCCCCCNC(=O)Oc1ccc(Cl)cc1C(=O)Nc1ccc(Cl)c(Cl)c1

>  <Result units>
µM

>  <MIC>
0.5

$$$$

* * *

System: Mycobacterium tuberculosis
Assay name: microbe, parasite or virus in culture
Assay setup: isolate 7357/98, 336 h
Parameter: MIC. Scope: all listed entries.

>  <Compound>
NNC(=O)c1ccncc1 [ISONIAZID]

>  <MIC>
16 µM

$$$$
>  <Compound>
CCCCCCCCNC(=O)Oc1ccc(Cl)cc1C(=O)Nc1ccc(Cl)c(Cl)c1

>  <MIC>
1 µM

$$$$
>  <Compound>
CCCCCCCNC(=O)Oc1ccc(Cl)cc1C(=O)Nc1ccc(Cl)c(Cl)c1

>  <MIC>
0.5 µM

$$$$
>  <Compound>
CCCCCNC(=O)Oc1ccc(Cl)cc1C(=O)Nc1ccc(Cl)c(Cl)c1

>  <MIC>
0.5 µM

$$$$
>  <Compound>
CCCCCCNC(=O)Oc1ccc(Cl)cc1C(=O)Nc1ccc(Cl)c(Cl)c1

>  <MIC>
0.5 µM

$$$$
>  <Compound>
CCCCCCNC(=O)Oc1ccc(Cl)cc1C(=O)Nc1cccc(Cl)c1

>  <MIC>
1 µM

$$$$
>  <Compound>
CCCCNC(=O)Oc1ccc(Cl)cc1C(=O)Nc1ccc(Cl)c(Cl)c1

>  <MIC>
0.5 µM

$$$$
>  <Compound>
CCCCCNC(=O)Oc1ccc(Cl)cc1C(=O)Nc1ccc(Cl)cc1

>  <MIC>
1 µM

$$$$
>  <Compound>
CCNC(=O)Oc1ccc(Cl)cc1C(=O)Nc1ccc(Cl)c(Cl)c1

>  <MIC>
0.5 µM

$$$$
